# target.or.test.system: MAP4K2 (human) (UniProt Q12851)
# Sequence (Q12851 whole entry, looked up): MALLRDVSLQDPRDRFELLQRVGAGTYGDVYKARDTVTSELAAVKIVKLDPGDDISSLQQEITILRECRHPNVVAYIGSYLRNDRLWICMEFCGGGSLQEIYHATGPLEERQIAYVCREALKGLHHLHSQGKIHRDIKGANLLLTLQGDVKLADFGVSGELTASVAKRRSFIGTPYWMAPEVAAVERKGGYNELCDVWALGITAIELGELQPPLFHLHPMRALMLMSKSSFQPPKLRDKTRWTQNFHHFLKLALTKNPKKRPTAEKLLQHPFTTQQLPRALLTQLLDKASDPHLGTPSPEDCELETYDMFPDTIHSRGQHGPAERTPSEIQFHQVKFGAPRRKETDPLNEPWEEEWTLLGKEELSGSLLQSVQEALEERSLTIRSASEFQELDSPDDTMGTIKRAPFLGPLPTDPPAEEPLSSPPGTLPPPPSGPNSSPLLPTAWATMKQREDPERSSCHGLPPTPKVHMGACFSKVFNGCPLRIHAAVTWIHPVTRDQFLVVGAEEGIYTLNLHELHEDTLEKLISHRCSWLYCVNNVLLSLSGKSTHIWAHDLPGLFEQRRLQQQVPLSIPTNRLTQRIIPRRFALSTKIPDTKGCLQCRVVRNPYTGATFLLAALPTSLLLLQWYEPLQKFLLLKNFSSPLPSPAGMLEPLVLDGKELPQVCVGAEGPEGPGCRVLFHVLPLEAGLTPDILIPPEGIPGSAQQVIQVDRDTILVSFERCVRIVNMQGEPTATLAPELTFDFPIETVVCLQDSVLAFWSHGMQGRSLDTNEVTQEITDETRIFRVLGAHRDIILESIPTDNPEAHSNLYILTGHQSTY
# experimental.details: radiometric filter-binding kinase assay, Kinase HotSpot
# run.parameters: compound 0.5 µM; ATP 10 µM
readout.type: residual activity

O=C(NC(NC(=S)Nc1ccc(F)c([N+](=O)[O-])c1)C(Cl)(Cl)Cl)C(c1ccccc1)c1ccccc1 (centres undefined)
111%
COc1cc2ncnc(Nc3ccc(F)c(Cl)c3)c2cc1OCCCN1CCOCC1
104%
O=c1cc(-c2cccc3c2Sc2ccccc2S3)oc(N2CCOCC2)c1
109%

// moving on: another record for residual activity
[in] Item under review: `Nc1nc(Nc2ccc(S(N)(=O)=O)cc2)nn1C(=S)Nc1c(F)cccc1F` . Reported residual activity?
[out] 2.13%

----------
# target.or.test.system: UniProtKB Q8WTQ7
# Sequence (Q8WTQ7 whole entry, looked up): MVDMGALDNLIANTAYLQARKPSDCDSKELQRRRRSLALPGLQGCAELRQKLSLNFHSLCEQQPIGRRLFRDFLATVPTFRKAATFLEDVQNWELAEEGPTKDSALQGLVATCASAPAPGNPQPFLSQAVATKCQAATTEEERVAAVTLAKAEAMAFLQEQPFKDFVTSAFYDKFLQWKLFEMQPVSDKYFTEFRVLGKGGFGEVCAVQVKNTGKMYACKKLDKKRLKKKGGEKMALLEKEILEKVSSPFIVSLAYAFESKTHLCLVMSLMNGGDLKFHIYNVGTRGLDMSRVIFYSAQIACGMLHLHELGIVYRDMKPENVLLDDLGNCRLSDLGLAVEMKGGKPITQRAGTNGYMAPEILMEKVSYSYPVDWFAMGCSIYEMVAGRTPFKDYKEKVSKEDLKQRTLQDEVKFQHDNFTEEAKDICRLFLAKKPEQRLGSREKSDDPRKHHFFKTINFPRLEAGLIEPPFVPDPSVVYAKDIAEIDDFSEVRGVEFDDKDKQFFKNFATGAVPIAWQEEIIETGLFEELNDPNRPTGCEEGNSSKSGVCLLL
# experimental.details: radiometric filter-binding kinase assay, Kinase HotSpot
# run.parameters: compound 0.5 µM; ATP 10 µM
Task for the reader: assign each of the following molecules its reported residual activity.
One number for each entry, in %.

Solved entries:
Nc1nc(Nc2ccc(S(N)(=O)=O)cc2)nn1C(=S)Nc1c(F)cccc1F
96.6
COc1ccc(-c2cnc3c(-c4ccsc4)cnn3c2)cc1
99.9
CC(C)(C)c1nc2c3ccc(F)cc3c3c(=O)[nH]ccc3c2[nH]1
60.5
O=C1Nc2cc(Br)ccc2/C1=C1/Nc2ccccc2/C1=N\O
96.7
O=c1cc(-c2cccc3c2Sc2ccccc2S3)oc(N2CCOCC2)c1
99.2

Please give residual activity, item by item, for the list that follows.
1. C#Cc1cccc(Nc2ncnc3cc(OCCOC)c(OCCOC)cc23)c1
2. CC(C)n1cnc2c(Nc3cccc(Cl)c3)nc(NCCO)nc21
3. Nc1nc(Nc2ccc(S(N)(=O)=O)cc2)nn1C(=O)c1c(F)cccc1F
4. Oc1ccc(-c2nc(-c3ccc(F)cc3)c(-c3ccncc3)[nH]2)cc1
5. Cc1ccc(NC(=O)c2ccc(CN3CCN(C)CC3)cc2)cc1Nc1nc(-c2cccnc2)cs1
6. CCCNC(=O)Nc1ccc(Oc2ncnc3cc(OC)c(OC)cc23)cc1Cl
7. CCN1/C(=C/C(C)=O)Sc2ccc(OC)cc21
8. CS(=O)c1ccc(-c2nc(-c3ccc(F)cc3)c(-c3ccncc3)[nH]2)cc1 (stereo unspecified)

[out]
98.3
88.7
65.9
105
104
94.7
104
107

Go through the items and report each one's residual activity.
1. Cc1cc2ncc(-c3ccccc3)nc2cc1C
2. O=C1Nc2ccccc2/C1=C\c1c(Cl)[nH]c2ccccc12
3. COc1cc2nccc(Oc3ccc(NC(=S)NC(=O)c4ccccc4C)cc3)c2cc1OC
4. Clc1ccc(Nc2nnc(Cc3ccncc3)c3ccccc23)cc1
5. O=C1Cc2c([nH]c3ccc([N+](=O)[O-])cc23)-c2ccccc2N1
6. NC(=O)c1ccc(N(C(N)=O)c2c(F)cccc2F)nc1-c1ccc(F)cc1F
7. O=c1cc(N2CCNCC2)oc2c(-c3ccccc3)cccc12

[out]
[102, 106, 95.6, 92.2, 99, 108, 114]

Provide each entry's residual activity from the list below.
1. O=C(NC(NC(=S)Nc1ccc(F)c([N+](=O)[O-])c1)C(Cl)(Cl)Cl)C(c1ccccc1)c1ccccc1 (stereo unspecified)
2. O=C(Nc1ccc(Cl)cc1)c1ccccc1NCc1ccncc1
3. CSc1nc(-c2ccc(F)cc2)c(-c2ccnc(NC(C)c3ccccc3)c2)[nH]1 (stereo unspecified)
4. CC(C)[C@H](CO)Nc1nc(Nc2cccc(Cl)c2)c2ncn(C(C)C)c2n1
5. Nc1n[nH]c2nnc(-c3c(-c4ccccc4)nn4ccccc34)cc12
6. COc1cc2ncnc(Nc3ccc(F)c(Cl)c3)c2cc1OCCCN1CCOCC1

[out]
[101, 96.2, 100, 88.8, 96.7, 96.2]

----------
For each entry below, report its residual activity value.
# target.or.test.system: DYRK1A (human) (UniProt Q13627)
# experimental.details: radiometric filter-binding kinase assay, Kinase HotSpot
# run.parameters: compound 0.5 µM; ATP 10 µM

Cc1ccc(NC(=O)c2ccc(CN3CCN(C)CC3)cc2)cc1Nc1nc(-c2cccnc2)cs1
106%

Please look at the items below and tell me residual activity for each one, in order.
1. Nc1nc(Nc2ccc(S(N)(=O)=O)cc2)nn1C(=O)c1c(F)cccc1F
2. O=C(Nc1ccc(Cl)cc1)c1ccccc1NCc1ccncc1
3. CCN1/C(=C/C(C)=O)Sc2ccc(OC)cc21
4. Nc1n[nH]c2nnc(-c3c(-c4ccccc4)nn4ccccc34)cc12
5. NC(=O)c1ccc(N(C(N)=O)c2c(F)cccc2F)nc1-c1ccc(F)cc1F

[out]
1: 101%; 2: 97.1%; 3: 28.9%; 4: 102%; 5: 98.7%

Report residual activity for each item below.
1. Clc1ccc(Nc2nnc(Cc3ccncc3)c3ccccc23)cc1
2. COc1cc2ncnc(Nc3ccc(F)c(Cl)c3)c2cc1OCCCN1CCOCC1
3. COc1cc2nccc(Oc3ccc(NC(=S)NC(=O)c4ccccc4C)cc3)c2cc1OC
4. CS(=O)c1ccc(-c2nc(-c3ccc(F)cc3)c(-c3ccncc3)[nH]2)cc1 (stereo not given)
5. Cc1cc2ncc(-c3ccccc3)nc2cc1C
6. CC(C)(C)c1nc2c3ccc(F)cc3c3c(=O)[nH]ccc3c2[nH]1

[out]
102%
101%
95.4%
95.6%
89.9%
102%

State recorded residual activity for all listed compounds.
1. O=c1cc(N2CCNCC2)oc2c(-c3ccccc3)cccc12
2. O=C1Nc2cc(Br)ccc2/C1=C1/Nc2ccccc2/C1=N\O
3. O=C1Cc2c([nH]c3ccc([N+](=O)[O-])cc23)-c2ccccc2N1
4. Nc1nc(Nc2ccc(S(N)(=O)=O)cc2)nn1C(=S)Nc1c(F)cccc1F
5. CCCNC(=O)Nc1ccc(Oc2ncnc3cc(OC)c(OC)cc23)cc1Cl

[out]
96.8%
101%
86.2%
15.3%
96.9%

Report residual activity for each item below.
1. COc1ccc(-c2cnc3c(-c4ccsc4)cnn3c2)cc1
2. O=c1cc(-c2cccc3c2Sc2ccccc2S3)oc(N2CCOCC2)c1
3. CSc1nc(-c2ccc(F)cc2)c(-c2ccnc(NC(C)c3ccccc3)c2)[nH]1 (stereo not given)
4. CC(C)n1cnc2c(Nc3cccc(Cl)c3)nc(NCCO)nc21
5. Oc1ccc(-c2nc(-c3ccc(F)cc3)c(-c3ccncc3)[nH]2)cc1
6. CC(C)[C@H](CO)Nc1nc(Nc2cccc(Cl)c2)c2ncn(C(C)C)c2n1
7. O=C(NC(NC(=S)Nc1ccc(F)c([N+](=O)[O-])c1)C(Cl)(Cl)Cl)C(c1ccccc1)c1ccccc1 (stereo not given)

[out]
69.7%
95%
97.9%
88.6%
99.6%
65.4%
99.8%

[in] Consider the compound `O=C1Nc2ccccc2/C1=C\c1c(Cl)[nH]c2ccccc12` and give its measured residual activity.
[out] 107%

----------
Provide the recorded residual activity for the entries that follow.
# target.or.test.system: BTK (human)
# experimental.details: radiometric filter-binding kinase assay, Kinase HotSpot
# run.parameters: compound 0.5 µM; ATP 10 µM
Numbers only, in %.

Oc1ccc(-c2nc(-c3ccc(F)cc3)c(-c3ccncc3)[nH]2)cc1
101
O=C1Nc2cc(Br)ccc2/C1=C1/Nc2ccccc2/C1=N\O
13.1
Nc1nc(Nc2ccc(S(N)(=O)=O)cc2)nn1C(=S)Nc1c(F)cccc1F
84.1
CCN1/C(=C/C(C)=O)Sc2ccc(OC)cc21
101

For the next question, use this compound.
[in] Please give the measured residual activity for this compound: `O=C1Nc2ccccc2/C1=C\c1c(Cl)[nH]c2ccccc12`
[out] 94.6

----------
Please provide measured residual activity for the entries that follow.
# target.or.test.system: UniProt O15530
# Sequence (O15530 whole entry, looked up): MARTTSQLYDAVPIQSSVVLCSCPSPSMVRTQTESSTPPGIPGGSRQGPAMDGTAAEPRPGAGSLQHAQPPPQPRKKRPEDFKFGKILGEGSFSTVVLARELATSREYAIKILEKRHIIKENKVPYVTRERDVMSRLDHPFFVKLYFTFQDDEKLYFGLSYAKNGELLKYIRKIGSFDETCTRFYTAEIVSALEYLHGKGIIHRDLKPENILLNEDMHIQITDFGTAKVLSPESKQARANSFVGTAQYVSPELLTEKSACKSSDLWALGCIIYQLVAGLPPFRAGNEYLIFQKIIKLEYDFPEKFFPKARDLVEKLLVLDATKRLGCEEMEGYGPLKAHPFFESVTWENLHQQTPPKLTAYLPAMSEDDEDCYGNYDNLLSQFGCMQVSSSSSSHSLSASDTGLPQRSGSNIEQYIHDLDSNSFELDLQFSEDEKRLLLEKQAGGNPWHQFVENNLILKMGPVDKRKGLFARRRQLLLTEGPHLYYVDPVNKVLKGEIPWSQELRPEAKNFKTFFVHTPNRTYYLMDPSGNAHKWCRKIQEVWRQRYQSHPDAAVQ
# experimental.details: radiometric filter-binding kinase assay, Kinase HotSpot
# run.parameters: compound 0.5 µM; ATP 10 µM
Answers are plain numbers, in %.

Clc1ccc(Nc2nnc(Cc3ccncc3)c3ccccc23)cc1
88.3

For every item in the list below, what is its measured residual activity?
1. COc1cc2ncnc(Nc3ccc(F)c(Cl)c3)c2cc1OCCCN1CCOCC1
2. Nc1n[nH]c2nnc(-c3c(-c4ccccc4)nn4ccccc34)cc12
3. Cc1ccc(NC(=O)c2ccc(CN3CCN(C)CC3)cc2)cc1Nc1nc(-c2cccnc2)cs1

[out]
1: 88.2; 2: 104; 3: 101

----------
# target.or.test.system: AKT2 (human) (UniProt P31751)
# Sequence (P31751 whole entry, looked up): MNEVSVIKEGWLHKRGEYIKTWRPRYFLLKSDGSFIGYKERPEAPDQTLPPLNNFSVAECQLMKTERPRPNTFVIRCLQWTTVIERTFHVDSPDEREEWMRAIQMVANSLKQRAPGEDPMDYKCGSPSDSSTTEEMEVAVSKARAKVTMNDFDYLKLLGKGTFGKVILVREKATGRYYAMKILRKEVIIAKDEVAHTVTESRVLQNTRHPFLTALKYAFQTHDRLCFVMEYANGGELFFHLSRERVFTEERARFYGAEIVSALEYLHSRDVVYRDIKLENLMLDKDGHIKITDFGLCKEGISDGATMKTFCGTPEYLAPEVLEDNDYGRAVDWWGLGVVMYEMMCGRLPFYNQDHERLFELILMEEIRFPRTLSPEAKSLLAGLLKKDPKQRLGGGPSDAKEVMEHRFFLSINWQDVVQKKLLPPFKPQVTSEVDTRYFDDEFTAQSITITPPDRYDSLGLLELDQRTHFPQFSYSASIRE
# experimental.details: radiometric filter-binding kinase assay, Kinase HotSpot
# run.parameters: compound 0.5 µM; ATP 10 µM
Kindly state residual activity for each of the entries shown.
Give bare numbers, in %.

CCCNC(=O)Nc1ccc(Oc2ncnc3cc(OC)c(OC)cc23)cc1Cl
89.7

Lab note: each compound below needs its residual activity filled in.
1. O=C(NC(NC(=S)Nc1ccc(F)c([N+](=O)[O-])c1)C(Cl)(Cl)Cl)C(c1ccccc1)c1ccccc1 (centres undefined)
2. CC(C)n1cnc2c(Nc3cccc(Cl)c3)nc(NCCO)nc21
3. COc1cc2nccc(Oc3ccc(NC(=S)NC(=O)c4ccccc4C)cc3)c2cc1OC
4. COc1ccc(-c2cnc3c(-c4ccsc4)cnn3c2)cc1
5. O=c1cc(N2CCNCC2)oc2c(-c3ccccc3)cccc12
6. Nc1n[nH]c2nnc(-c3c(-c4ccccc4)nn4ccccc34)cc12
7. O=C(Nc1ccc(Cl)cc1)c1ccccc1NCc1ccncc1
8. CC(C)[C@H](CO)Nc1nc(Nc2cccc(Cl)c2)c2ncn(C(C)C)c2n1

[out]
[91.6, 92.4, 102, 93.3, 100, 97.5, 95.2, 90]
